Just for reference, ChEMBL document CHEMBL1146350 is where these values come from.

# System: Staphylococcus aureus
# METHOD: Antibacterial activity against Staphylococcus aureus ATCC 25923 by disc diffusion method; note: test concentration or dose not given here
# Assay type: functional
RECORDED METRIC: inhibition zone (IZ) (mm)
Kindly provide the numeric value in mm only, without the unit symbol.

Query inhibition zone (IZ) for CN[C@@H]1[C@H](O[C@H]2[C@H](O[C@H]3[C@H](O)[C@@H](O)[C@H](N=C(N)N)[C@@H](O)[C@@H]3N=C(N)N)O[C@@H](C)[C@]2(O)C=O)O[C@@H](CO)[C@H](O)[C@H]1O (stereo in doubt) [STREPTOMYCIN] 21

Query inhibition zone (IZ) for Nn1c(SCC(=O)c2cc3ccccc3oc2=O)nc2sc3c(c2c1=O)CCCC3 22

Query inhibition zone (IZ) for Nn1c(SCC(=O)c2ccccc2)nc2sc3c(c2c1=O)CCCC3 18
